Assay: modulators of HCV replicon luciferase signal, primary screen, HCV replication inhibitor project, Huh7 cells, luciferase reporter (AID 1109);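 further: huh7 hepatoma cells harbouring a luciferase neomycin HCV replicon reporter; luciferase luminescence as measure of HCV replicon replication; test concentration not given here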
Settings: 48 h, higher = more signal
experimentalEndpoint: z-score
Kindly provide the number alone.

IN: Kindly indicate its recorded z-score. Item: "COc1ccccc1CN1C(=O)c2ccccc2[C@@H](C(=O)NCCCN(C)C)[C@@H]1c1ccc(CO)cc1"
OUT: -1.98

IN: Kindly indicate its recorded z-score. Item: CC1CC/C=C\[C@H]2OC34C=CCN(c5ccc(Cl)cc5)C(=O)[C@H]3N(CCCO)C(=O)[C@]4(C)C2C(=O)O1 (stereo partly drawn)
OUT: -1.07

IN: Kindly indicate its recorded z-score. Item: "CCOC(=O)C1=CC[C@@H](c2ccccc2Cl)N(S(=O)(=O)c2ccc(C)cc2)[C@H]1c1cccc(OC)c1"
OUT: -0.587

IN: Kindly indicate its recorded z-score. Item: C=CCC(OC(C)=O)[C@@H]1[C@@H](N(Cc2ccc(-c3ccccc3)cc2)C(=O)c2ccc(-c3ccccc3)cc2)c2cc(OCCCO)ccc2N1C(=O)c1ccc2ccccc2n1 (stereo partly drawn)
OUT: -0.0356

IN: Kindly indicate its recorded z-score. Item: "COC(=O)Cn1c(C(=O)N(C)C)cc2c1C[C@H]1CN(C(=O)c3ccccc3)[C@@](Cc3ccc(OC)cc3)(C(=O)OC)[C@@H]21"
OUT: -1.69

IN: Kindly indicate its recorded z-score. Item: COc1cc2c(cc1O)C(C1CC1)N(Cc1ccc([N+](=O)[O-])o1)CC2 (stereo not drawn)
OUT: -0.498

IN: Kindly indicate its recorded z-score. Item: "[N-]=[N+]=NCc1ccccc1C[C@]1(C(=O)O)COC(c2ccc(OCCCO)cc2)=N1"
OUT: -0.35

IN: Kindly indicate its recorded z-score. Item: "C=CC[C@]1(C(=O)N(C)C)COC(c2ccc(OCCCO)cc2)=N1"
OUT: 1.55

====

Test: small-molecule binders of probe aInhba, primary screen, biochemical, small-molecule microarray, 635/667 nm fluorescence (AID 1148);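 further: score merges 667nm spot fluorescence with signal-to-noise for antibody binding to printed compounds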
Conditions: higher = more signal
Kindly state composite z-score for each of the entries shown.
Kindly provide the number alone.

IN: Kindly indicate its recorded composite z-score. Item: "CC(C)CNC(=O)[C@@H]1c2ccccc2C(=O)N(C(C)C)[C@H]1c1ccc(CO)cc1"
OUT: -0.0986

IN: Kindly indicate its recorded composite z-score. Item: "CC(C)CNC(=O)[C@@]1(C)c2ccccc2C(=O)N(Cc2cc(F)cc(C(F)(F)F)c2)[C@H]1c1ccc(CO)cc1"
OUT: -0.0719

IN: Kindly indicate its recorded composite z-score. Item: CCCCC(O)C1C=CC2C(=O)N(C)C(=O)C2N1Nc1ccccc1 (stereo not given)
OUT: 0.106

IN: Kindly indicate its recorded composite z-score. Item: "NCCCC[C@@H]1NC(=O)[C@H]2C[C@@H](C(=O)O)[C@@H](c3cccc(OCCO)c3)N2C1=O"
OUT: 0.15

IN: Kindly indicate its recorded composite z-score. Item: "CCCCC(=C=CC[C@@H](O)c1ccc(OCCO)cc1)C[C@@H](O)c1ccccn1"
OUT: 0.0569

====

Test: inhibitors of hydroxyurea-induced Chk1 phosphorylation, primary screen, imaging, HeLa, phospho-Chk1 antibody, percent positive cells (AID 1186)
Settings: hydroxyurea-induced phospho-Chk1 immunofluorescence imaging, higher = more signal
Respond with label 1 for z-score values of -0.002 and above, label 0 for values below.

IN: Can "CCCCNC(=O)c1ccc(C#C[Si](C)(C)C)c(OC(C)=O)c1" be said to have z-score at or above -0.002?
OUT: label 1

IN: Can "CCCC[C@H]1OB(O)C[C@H]2C1=C(C)C[C@H]1C(=O)C=CC(=O)[C@H]12" be said to have z-score at or above -0.002?
OUT: label 1

IN: Can "CN(C)C(=O)[C@@]1(CCS(=O)(=O)c2ccccc2)N=C(c2ccc(OCCCO)cc2)O[C@H]1c1ccccc1N=[N+]=[N-]" be said to have z-score at or above -0.002?
OUT: label 0

IN: Can CC(C)C[C@@H]1NC(=O)[C@@]23C(=O)N[C@@H](Cc4ccccc4)C2[C@H](C)[C@@]2(C)O[C@H]2C3/C=C/C/C=C\CNC(=O)[C@@H](CC(C)C)NC1=O (stereo partly specified) be said to have z-score at or above -0.002?
OUT: label 0

IN: Can O=C1OCCC=C[C@H]2OC34C=CCN(CCN5CCOCC5)C(=O)[C@H]3N(CCCO)C(=O)[C@@H]4C12 (stereo partly specified) be said to have z-score at or above -0.002?
OUT: label 0

IN: Can "CC(C)CNC(=O)[C@@H]1c2ccccc2C(=O)N(C2Cc3ccccc3C2)[C@H]1c1ccc(CO)cc1" be said to have z-score at or above -0.002?
OUT: label 0

IN: Can CCC(CC)C(O)C1C=CC2C(=O)N(C)C(=O)C2N1N1CCCCC1 (stereo unspecified) be said to have z-score at or above -0.002?
OUT: label 1

IN: Can "CCc1cccc(NC(=O)O[C@H]2[C@H](OC(=O)Nc3ccc4c(c3)OCO4)[C@H](OC(=O)Nc3ccc4c(c3)OCO4)[C@@H](OC)O[C@@H]2CO)c1" be said to have z-score at or above -0.002?
OUT: label 0

IN: Can "COC(=O)[C@@]1(Cc2ccc(F)cc2)[C@H]2c3cc(C(=O)N4CCCC4)n(CCO)c3C[C@H]2CN1C(=O)c1ccccc1" be said to have z-score at or above -0.002?
OUT: label 0

IN: Can "CC(C)[C@@H](C(=O)O)n1cc(-c2ccccc2)nn1" be said to have z-score at or above -0.002?
OUT: label 1

IN: Can "CCOC(=O)C[C@H]1[C@H](OC(=O)c2ccc(-c3ccccc3)cc2)[C@@H](NC(=O)CC(C)C)c2cc(OCCCO)ccc2N1C(=O)Cc1ccc(OC)cc1" be said to have z-score at or above -0.002?
OUT: label 1

IN: Can CCOC(=O)C1=CCC(c2cc3ccccc3[nH]2)N(S(=O)(=O)c2ccccc2[N+](=O)[O-])C1 (stereo unspecified) be said to have z-score at or above -0.002?
OUT: label 0

IN: Can "[N-]=[N+]=Nc1ccccc1[C@@H]1OC(c2ccc(OCCCO)cc2)=N[C@]1(Cc1ccccc1)C(N)=O" be said to have z-score at or above -0.002?
OUT: label 0

IN: Can "CCCC=C(CCC)[C@@H](NC(=O)c1ccccc1)c1ccc(C(=O)OC)cc1" be said to have z-score at or above -0.002?
OUT: label 1

IN: Can O=C1OCCC=C[C@H]2OC34C=CCN(c5ccc(Cl)cc5)C(=O)[C@H]3N(CCO)C(=O)[C@@H]4C12 (stereo partly specified) be said to have z-score at or above -0.002?
OUT: label 0

====

Test: compound binding in COS7 lysate, probe aLAP1, primary screen, cell lysate, small-molecule microarray (AID 1124);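 further: lysate comes from COS7 cells expressing LAP1 and is applied at 0.3 µg/mL; score merges spot fluorescence near 667 nm with signal-to-noise over triplicate slides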
Conditions: probe aLAP1, fluorescence, higher = more signal
Respond with TRUE for composite z-score values of 1 and above, FALSE for values below.

IN: Can "COCCOC(=O)N1C(=O)[C@@]2(c3cc(C#CC4=CCCCC4)ccc31)[C@H](c1ccc(OCCO)cc1)N1[C@H](c3ccccc3)[C@H](c3ccccc3)OC(=O)[C@H]1[C@@H]2C(=O)N1CCCCCCC1" be said to have composite z-score at or above 1?
OUT: FALSE

IN: Can "COCCOC(=O)N1C(=O)[C@@]2(c3cc(C#CCCO)ccc31)[C@H](c1ccc(O)cc1)N1[C@H](c3ccccc3)[C@H](c3ccccc3)OC(=O)[C@H]1[C@@H]2C(=O)N1CCc2cc(OC)c(OC)cc2C1" be said to have composite z-score at or above 1?
OUT: TRUE

IN: Can COc1cc(OC)c(C(O)C2C=CC3C(=O)N(c4ccccc4)C(=O)C3N2Nc2ccccc2F)cc1Br (stereo not given) be said to have composite z-score at or above 1?
OUT: FALSE

IN: Can O=C1NC(=O)C2C1C=CC(C(O)c1ccc(F)cc1)N2Nc1ccccn1 (stereo not given) be said to have composite z-score at or above 1?
OUT: FALSE

IN: Can COc1cc2c(cc1O)C(C1CC1)N(Cc1ccc([N+](=O)[O-])o1)CC2 (stereo not given) be said to have composite z-score at or above 1?
OUT: TRUE

====

Target: NADPH oxidase 2 (Homo sapiens) (UniProt P04839)
Sequence (P04839 whole entry, looked up): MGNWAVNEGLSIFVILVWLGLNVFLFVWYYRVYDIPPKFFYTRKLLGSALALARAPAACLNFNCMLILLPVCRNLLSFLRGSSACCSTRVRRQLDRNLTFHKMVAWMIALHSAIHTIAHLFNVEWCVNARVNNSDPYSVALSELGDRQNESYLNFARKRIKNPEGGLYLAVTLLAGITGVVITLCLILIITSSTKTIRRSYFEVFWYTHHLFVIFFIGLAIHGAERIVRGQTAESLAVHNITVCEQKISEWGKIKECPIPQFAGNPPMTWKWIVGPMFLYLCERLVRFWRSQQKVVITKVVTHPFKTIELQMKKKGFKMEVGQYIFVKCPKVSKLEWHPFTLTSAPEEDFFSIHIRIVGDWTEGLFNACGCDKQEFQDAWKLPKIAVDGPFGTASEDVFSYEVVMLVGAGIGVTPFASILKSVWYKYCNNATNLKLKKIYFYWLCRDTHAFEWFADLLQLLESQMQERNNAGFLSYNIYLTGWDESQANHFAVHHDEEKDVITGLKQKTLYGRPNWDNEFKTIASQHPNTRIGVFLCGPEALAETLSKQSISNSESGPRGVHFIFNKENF
Assay: NOX2-dependent H2O2 signal modulators, primary screen, NOX inhibitor project, cell-based, HEK293-NOX2, PMA-stimulated, Amplex Red fluorescence (AID 1159); further: test concentration not given here
Settings: 45 min, higher = more signal, called active from +8 up or from −8 down
Kindly state z-score for each of the entries shown.
Kindly provide the number alone.

IN: Kindly indicate its recorded z-score. Item: "CN(C)CCCC[C@@H]1NC(=O)[C@@H]2C[C@H](C(=O)NCc3ccc(F)cc3)[C@H](c3ccc(O)cc3)N2C1=O"
OUT: 0.391

IN: Kindly indicate its recorded z-score. Item: "CC(C)(C)OC(=O)CC[C@]1(C(N)=O)N=C(c2ccc(OCCCO)cc2)O[C@H]1c1ccccc1CN=[N+]=[N-]"
OUT: 0.709

IN: Kindly indicate its recorded z-score. Item: "O=C(NCCO)C1=C[C@H](Oc2ccccc2I)[C@@H](O)[C@H](NCc2ccc(F)cc2)C1"
OUT: 0.71

IN: Kindly indicate its recorded z-score. Item: "COCCOC(=O)N1C(=O)[C@@]2(c3ccccc31)[C@H](c1ccc(OCCO)cc1)N1[C@H](c3ccccc3)[C@H](c3ccccc3)OC(=O)[C@H]1[C@@H]2C(=O)N1CCN(c2ncccn2)CC1"
OUT: 1.19

Value source: PubChem BioAssay
